Answer each item with its documented Population Normal (%).
- Tested on: U2OS
- method.summary: Multiplex assay against U2OS
- Format: toxicity, cell-based
- reported.conditions: human, 24 h, 10 µM, compound concentration 10 uM
Answers are plain numbers, in %.

C[C@H](NC(=O)c1c(C(F)F)nn(C)c1Oc1cccc(C(F)(F)F)c1)c1ccc(C(=O)O)cc1    97

Give Population Normal (%) for all compounds that follow.
1. CC(C)(c1ccc(O)cc1)c1ccc(O)cc1
2. C[C@H](NC(=O)CNC(=O)c1cccc(Cl)c1)c1ccccc1
3. Cc1cc(C(C#N)c2ccc(Cl)cc2)c(Cl)cc1NC(=O)c1cc(I)cc(I)c1O (stereo not given)
4. CCOC(=O)c1c(/C(C#N)=C\N)c2ccc(Cl)c(Cl)c2n1C

1: 100; 2: 98; 3: 100; 4: 100

----------
Answer each item with its documented Population Hoechst High Intensity Objects (%).
- Tested on: U2OS
- method.summary: Multiplex assay against U2OS
- Assay type: toxicity, cell-based
- reported.conditions: human, 24 h, 10 µM, compound concentration 10 uM
Give bare numbers, in %.

Cc1ccc(-c2c(C(=O)CF)n(CCCO)c3ncnc(N)c23)cc1    0
CCn1c(-c2ccncc2)cc2c1CCNC2=O    0
CC(C)[C@H](C(=O)Nc1ccc(C(=O)NO)cc1)c1ccccc1 [AR-42]    0
C=CC(=O)N1CCC[C@@H](n2nc(C(=O)Nc3ccc(CC(=O)N(C)C)c(C)c3C)c3c(N)ncnc32)C1    0

Give Population Hoechst High Intensity Objects (%) for all molecules that follow.
1. C[C@H](NC(=O)c1c(C(F)F)nn(C)c1Oc1cccc(C(F)(F)F)c1)c1ccc(C(=O)O)cc1 [PALUPIPRANT]
2. CCn1c(-c2nonc2N)nc2c(C#CC(C)(C)O)ncc(OCC3CCCNC3)c21 (stereo unspecified)

1: 2; 2: 0

----------
Answer each item with its documented Population Hoechst High Intensity Objects (%).
- Test system: U2OS
- method.summary: Multiplex assay against U2OS
- Format: toxicity, cell-based
- reported.conditions: human, 12 h, 1 µM, compound concentration 1 uM
Answers are plain numbers, in %.

In the examples that follow, each entry is paired with its recorded Population Hoechst High Intensity Objects (%).
C[C@H](NC(=O)CNC(=O)c1cccc(Cl)c1)c1ccccc1    3
CCn1c(-c2nonc2N)nc2c(C#CC(C)(C)O)ncc(OCC3CCCNC3)c21 (stereo not given)    0
C=CC(=O)N1CCC[C@@H](n2nc(C(=O)Nc3ccc(CC(=O)N(C)C)c(C)c3C)c3c(N)ncnc32)C1    0
CCn1c(-c2ccncc2)cc2c1CCNC2=O    0

Now examine the next entry.
Provide measured Population Hoechst High Intensity Objects (%) value, entry: COc1ccc(CC(=O)NC(N/C(=N/C#N)Nc2cccc3ncccc23)C(C)(C)C)cc1OC (stereo not given)
0

----------
- System: U2OS
- method.summary: Multiplex assay against U2OS
- Type: toxicity, cell-based
- reported.conditions: human, 12 h, 10 µM, compound concentration 10 uM
Answer each item with its documented Population Normal (%).
Answers are plain numbers, in %.

In the examples that follow, each entry is paired with its recorded Population Normal (%).
CN1[C@@H](CC(=O)c2ccccc2)CCC[C@H]1C[C@H](O)c1ccccc1.Cl [LOBELINE HYDROCHLORIDE]    100
CCOC(=O)c1c(/C(C#N)=C\N)c2ccc(Cl)c(Cl)c2n1C    100
CCCCCN1C(=O)C2(COc3cc4c(cc32)OCO4)c2ccccc21 (centres undefined)    100

Give Population Normal (%) for all compounds that follow.
1. NC1=NC(=O)/C(=C2\CCNC(=O)c3[nH]c4ccccc4c32)N1
2. CC[C@@H](C)Nc1nc(C)nc2c(-c3ccc(OC)nc3C)c(C)nn12 [PEXACERFONT]
3. CC(C)(c1ccc(O)cc1)c1ccc(O)cc1 [BISPHENOL A]
4. Cc1cc(C(C#N)c2ccc(Cl)cc2)c(Cl)cc1NC(=O)c1cc(I)cc(I)c1O (centres undefined) [CLOSANTEL]
5. COc1cc(N2CCN(C)CC2)ccc1Nc1nccc(-c2cn(C)c3cnccc23)n1
6. C[C@H](NC(=O)c1c(C(F)F)nn(C)c1Oc1cccc(C(F)(F)F)c1)c1ccc(C(=O)O)cc1 [PALUPIPRANT]

1: 100; 2: 98; 3: 100; 4: 100; 5: 100; 6: 96

----------
- System: Fibroblast
- method.summary: Multiplex assay against human fibroblast
- Assay type: toxicity, cell-based
- reported.conditions: 12 h, 1 µM, compound concentration 1 uM
observation.type: Population Mitochondria Different-Phenotype (%)
Answers are plain numbers, in %.

O=C(O)CCC/C=C\CC1C(O)CC(O)C1/C=C/C(O)COc1cccc(Cl)c1 (stereo not given)    2
Cc1ccc(/C(=C\CN2CCCC2)c2ccccn2)cc1    9
N#Cc1c(Oc2cccc(OS(=O)(=O)CCCC(F)(F)F)c2)cccc1C(F)(F)F    7

Give Population Mitochondria Different-Phenotype (%) for all molecules that follow.
1. Cc1cc(=O)n(C)c2cc(N3C(=O)CC[C@H](NS(=O)(=O)CC(C)C)[C@H]3c3ccc(Cl)cc3)ccc12
2. CC[C@@H](C)Nc1nc(C)nc2c(-c3ccc(OC)nc3C)c(C)nn12

1. 4
2. 4

----------
- System: U2OS
- method.summary: Multiplex assay against U2OS
- Format: toxicity, cell-based
- reported.conditions: human, 24 h, 1 µM, compound concentration 1 uM
observation.type: Population Tubulin-Different-Phenotype (%)
Numbers only, in %.

COC(c1ccccc1)(c1ccccc1)[C@H](Oc1nc(C)cc(C)n1)C(=O)O [AMBRISENTAN]    1
O=c1nc2[nH]c3ccccc3nc-2c(=O)[nH]1 [ALLOXAZINE]    2
CCCCC[C@H](O)/C=C/[C@H]1[C@H](O)CC(=O)[C@@H]1CCCCCCC(=O)O [ALPROSTADIL]    3

Give Population Tubulin-Different-Phenotype (%) for all compounds that follow.
1. CCCn1c(=O)c2[nH]c(C3CCCC3)nc2n(CCC)c1=O
2. O=C(NCC(=O)N1CC[C@H](N[C@H]2CC[C@@](O)(c3ccc(-c4ncccn4)cn3)CC2)C1)c1cccc(C(F)(F)F)c1 [PF-4136309]
3. CN(C)C(=O)Cn1cc(-c2ccc(-c3cncc4ccccc34)cc2)cn1
4. CC[C@@H](C)Nc1nc(C)nc2c(-c3ccc(OC)nc3C)c(C)nn12 [PEXACERFONT]

1. 4
2. 2
3. 4
4. 2

----------
- Test system: Fibroblast
- method.summary: Multiplex assay against human fibroblast
- Format: toxicity, cell-based
- reported.conditions: 48 h, 1 µM, compound concentration 1 uM
observation.type: Population Pyknosed Nuclei (%)
Please report the result as a number followed by the unit.

In the examples that follow, each entry is paired with its recorded Population Pyknosed Nuclei (%).
CCCn1c(=O)c2[nH]c(C3CCCC3)nc2n(CCC)c1=O    12%
CC(C)(C)c1cc(NC(=O)Nc2ccc(-c3cn4c(n3)sc3cc(OCCN5CCOCC5)ccc34)cc2)no1    9%
Cn1cc(C(=O)OCC2CCN(CCNS(C)(=O)=O)CC2)c2ccccc21    12%

Provide measured Population Pyknosed Nuclei (%) value, entry: `N#Cc1c(Oc2cccc(OS(=O)(=O)CCCC(F)(F)F)c2)cccc1C(F)(F)F`
14%

----------
- System: U2OS
- method.summary: Multiplex assay against U2OS
- Assay type: toxicity, cell-based
- reported.conditions: human, 24 h, 10 µM, compound concentration 10 uM
observation.type: Population Hoechst High Intensity Objects (%)
One number for each entry, in %.

In the examples that follow, each entry is paired with its recorded Population Hoechst High Intensity Objects (%).
Nc1nc(CC(=O)Nc2ccc(CCNC[C@H](O)c3ccccc3)cc2)cs1 [MIRABEGRON]    1
CC(C)(c1ccc(O)cc1)c1ccc(O)cc1 [BISPHENOL A]    0
NC1=NC(=O)/C(=C2\CCNC(=O)c3[nH]c4ccccc4c32)N1    0
Cc1cc(C(C#N)c2ccc(Cl)cc2)c(Cl)cc1NC(=O)c1cc(I)cc(I)c1O (centres undefined) [CLOSANTEL]    0
Cc1cc(NC(=O)NCCN2CCC(O)(Cc3ccccc3)CC2)c2ccccc2n1 [PALOSURAN]    3

Give Population Hoechst High Intensity Objects (%) for all compounds that follow.
1. COc1cc(N2CCN(C)CC2)ccc1Nc1nccc(-c2cn(C)c3cnccc23)n1
2. CCOC(=O)c1c(/C(C#N)=C\N)c2ccc(Cl)c(Cl)c2n1C
3. CN1CC[C@@]23CCCC[C@@H]2[C@@H]1Cc1ccc(O)cc13.O=C(O)C(O)C(O)C(=O)O
4. C[C@H](NC(=O)CNC(=O)c1cccc(Cl)c1)c1ccccc1

0
0
0
1

----------
- Tested on: HEK-293T
- method.summary: Multiplex assay against HEK293T
- Format: toxicity, cell-based
- reported.conditions: human, 12 h, 1 µM, compound concentration 1 uM
observation.type: Population Membrane Permeable-Phenotype (%)
One number for each entry, in %.

In the examples that follow, each entry is paired with its recorded Population Membrane Permeable-Phenotype (%).
Cc1ccc(OCC(O)C(C)NC(C)C)c2c1CCC2.Cl (centres undefined)    0
Cc1cccc(NC(=O)CN2CCC(c3ccccn3)CC2)c1.Cl.Cl    0
Cn1cc(C(=O)OCC2CCN(CCNS(C)(=O)=O)CC2)c2ccccc21    0
COc1cc(NC(=O)CCN2CCC(OC(=O)Nc3ccccc3-c3ccccc3)CC2)c(Cl)cc1CNC[C@H](O)c1ccc(O)c2[nH]c(=O)ccc12    0
Oc1c(CN2CCN(c3ccccn3)CC2)cc(Cl)c2cccnc12    0

Give Population Membrane Permeable-Phenotype (%) for all compounds that follow.
1. Cc1cnc(-c2cc(N3CCN(C(=O)CCS(C)(=O)=O)CC3)ncc2Cl)c(C)c1
2. Nc1nc(CC(=O)Nc2ccc(CCNC[C@H](O)c3ccccc3)cc2)cs1
3. COC(c1ccccc1)(c1ccccc1)[C@H](Oc1nc(C)cc(C)n1)C(=O)O
4. Cc1ccccc1C(=O)Nc1ccc(C(=O)N2CCCC(N(C)C)c3ccccc32)cc1.Cl (centres undefined)

1: 0; 2: 0; 3: 0; 4: 0

Ref: ChEMBL document CHEMBL5724801
